# protocol_summary: Apparent permeability from basolateral to apical side of human Caco-2 cells
# Assay type: ADME, cell-based
property_label: Papp B→A (×10⁻⁶ cm/s)

{"columns": ["molecular_string", "readout_number"],
 "data": [
  ["CC(C)(C)c1noc([C@@H]2CCCN2C(=O)C[C@H](N)Cc2cc(F)c(F)cc2F)n1", 49],
  ["N[C@@H](CC(=O)N1CCC[C@H]1c1noc(C2(C(F)(F)F)CC2)n1)Cc1cc(F)c(F)cc1F", 49],
  ["N[C@@H](CC(=O)N1CCC[C@H]1c1nc(-c2ncc(F)cc2F)no1)Cc1cc(F)c(F)cc1F", 73],
  ["CC(C)(F)c1nc([C@@H]2CCCN2C(=O)C[C@H](N)Cc2cc(F)c(F)cc2F)no1", 62],
  ["N[C@@H](CC(=O)N1CCC[C@H]1c1nc(C2CC2)no1)Cc1cc(F)c(F)cc1F", 52]
]}

###

# bioavailability per record follows
# protocol_summary: Oral bioavailability in Wistar rat at 3 mg/kg
# Assay type: ADME, organism-based
# condition_parameters: in vivo
property_label: bioavailability (%)

{"columns": ["molecular_string", "readout_number"],
 "data": [
  ["N[C@@H](CC(=O)N1CCC[C@H]1c1nc(-c2ncc(F)cc2F)no1)Cc1cc(F)c(F)cc1F", 56],
  ["CC(C)(C)c1noc([C@@H]2CCCN2C(=O)C[C@H](N)Cc2cc(F)c(F)cc2F)n1", 3],
  ["N[C@@H](CC(=O)N1CCC[C@H]1c1noc(C2(C(F)(F)F)CC2)n1)Cc1cc(F)c(F)cc1F", 43],
  ["CC(C)(F)c1nc([C@@H]2CCCN2C(=O)C[C@H](N)Cc2cc(F)c(F)cc2F)no1", 100]
]}

###

# protocol_summary: Apparent permeability from apical to basolateral side of human Caco-2 cells
# Type: ADME, cell-based

{"columns": ["molecular_string", "uom", "Papp A→B"],
 "data": [
  ["CC(C)(C)c1noc([C@@H]2CCCN2C(=O)C[C@H](N)Cc2cc(F)c(F)cc2F)n1", "×10⁻⁶ cm/s", 20],
  ["N[C@@H](CC(=O)N1CCC[C@H]1c1nc(-c2ncc(F)cc2F)no1)Cc1cc(F)c(F)cc1F", "×10⁻⁶ cm/s", 3],
  ["N[C@@H](CC(=O)N1CCC[C@H]1c1noc(C2(C(F)(F)F)CC2)n1)Cc1cc(F)c(F)cc1F", "×10⁻⁶ cm/s", 23],
  ["CC(C)(F)c1nc([C@@H]2CCCN2C(=O)C[C@H](N)Cc2cc(F)c(F)cc2F)no1", "×10⁻⁶ cm/s", 14],
  ["N[C@@H](CC(=O)N1CCC[C@H]1c1nc(C2CC2)no1)Cc1cc(F)c(F)cc1F", "×10⁻⁶ cm/s", 21]
]}

###

# pIC50 per record follows
# assay_target: Dipeptidyl peptidase 2 (Homo sapiens, UniProt Q9UHL4)
pIC50: −log10 of the molar value.
property_label: pIC50

{"columns": ["molecular_string", "readout_number"],
 "data": [
  ["CS(=O)(=O)N1CC(c2noc([C@@H]3CCCN3C(=O)C[C@H](N)Cc3cc(F)c(F)cc3F)n2)C1", 5.42],
  ["N[C@@H](CC(=O)N1CCC[C@H]1c1noc(C2(C(F)(F)F)CC2)n1)Cc1cc(F)c(F)cc1F", 5.00],
  ["CC(=O)N1CC(c2noc([C@@H]3CCCN3C(=O)C[C@H](N)Cc3cc(F)c(F)cc3F)n2)C1", 4.77],
  ["N[C@@H](CC(=O)N1CCC[C@H]1c1noc(C2(F)CC2)n1)Cc1cc(F)c(F)cc1F", 4.85],
  ["N[C@@H](CC(=O)N1CCC[C@H]1c1noc(C2CC2)n1)Cc1cc(F)c(F)cc1F", 4.96],
  ["N[C@@H](CC(=O)N1CCC[C@H]1c1nc(-c2ccccn2)no1)Cc1cc(F)c(F)cc1F", 6.05],
  ["CC(C)(C)c1nc([C@@H]2CCCN2C(=O)C[C@H](N)Cc2cc(F)c(F)cc2F)no1", 4.44],
  ["N[C@@H](CC(=O)N1CCC[C@H]1c1nc(N2CCCC2)no1)Cc1cc(F)c(F)cc1F", 5.49],
  ["N[C@@H](CC(=O)N1CCC[C@H]1c1nc(-c2ncccn2)no1)Cc1cc(F)c(F)cc1F", 5.66],
  ["N[C@@H](CC(=O)N1CCC[C@H]1c1nc(C2(C(F)(F)F)CC2)no1)Cc1cc(F)c(F)cc1F", 5.55],
  ["N[C@@H](CC(=O)N1CCC[C@H]1c1noc(C2(O)CC2)n1)Cc1cc(F)c(F)cc1F", 4.64],
  ["N[C@@H](CC(=O)N1CCC[C@H]1c1nc(-c2cnccn2)no1)Cc1cc(F)c(F)cc1F", 5.64],
  ["N[C@@H](CC(=O)N1CCC[C@H]1c1nc(N2CCOCC2)no1)Cc1cc(F)c(F)cc1F", 5.25],
  ["N[C@@H](CC(=O)N1CCC[C@H]1c1nc(C2CC2)no1)Cc1cc(F)c(F)cc1F", 5.42]
]}

###

# protocol_summary: Distribution coefficient, log D of the compound
# Type: physicochemical
# condition_parameters: octanol/water
Could you mark each record 1 if its logD falls strictly under 2, and 0 if it equals or exceeds it?

{"columns": ["molecular_string", "category_label"],
 "data": [
  ["CC(C)(F)c1nc([C@@H]2CCCN2C(=O)C[C@H](N)Cc2cc(F)c(F)cc2F)no1", 1],
  ["CC(C)(C)c1noc([C@@H]2CCCN2C(=O)C[C@H](N)Cc2cc(F)c(F)cc2F)n1", 1],
  ["CS(=O)(=O)N1CC(c2noc([C@@H]3CCCN3C(=O)C[C@H](N)Cc3cc(F)c(F)cc3F)n2)C1", 1],
  ["N[C@@H](CC(=O)N1CCC[C@H]1c1nc(C2CC2)no1)Cc1cc(F)c(F)cc1F", 1],
  ["N[C@@H](CC(=O)N1CCC[C@H]1c1nc(-c2ncc(F)cc2F)no1)Cc1cc(F)c(F)cc1F", 1],
  ["N[C@@H](CC(=O)N1CCC[C@H]1c1noc(C2(C(F)(F)F)CC2)n1)Cc1cc(F)c(F)cc1F", 0]
]}

###

# half-life at 3 µM per record follows
# protocol_summary: Half life in human liver microsomes at 3 uM
# Type: ADME, Microsome
property_label: half-life at 3 µM

{"columns": ["molecular_string", "result"],
 "data": [
  ["N[C@@H](CC(=O)N1CCC[C@H]1c1nc(-c2ncc(F)cc2F)no1)Cc1cc(F)c(F)cc1F", "> 120 min"],
  ["N[C@@H](CC(=O)N1CCC[C@H]1c1nc(C2CC2)no1)Cc1cc(F)c(F)cc1F", "> 120 min"],
  ["CC(C)(F)c1nc([C@@H]2CCCN2C(=O)C[C@H](N)Cc2cc(F)c(F)cc2F)no1", "> 120 min"],
  ["N[C@@H](CC(=O)N1CCC[C@H]1c1noc(C2(C(F)(F)F)CC2)n1)Cc1cc(F)c(F)cc1F", "> 120 min"],
  ["CS(=O)(=O)N1CC(c2noc([C@@H]3CCCN3C(=O)C[C@H](N)Cc3cc(F)c(F)cc3F)n2)C1", "> 120 min"],
  ["CC(C)(C)c1noc([C@@H]2CCCN2C(=O)C[C@H](N)Cc2cc(F)c(F)cc2F)n1", "80 min"]
]}
